Target: c-Src SH2;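 further: peptide library displayed on the E. coli surface as eCPX fusions, selected cells deep-sequenced, score is each peptide's frequency after selection divided by its frequency in the input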
Assay: SH2 binding enrichment of the phosphorylated peptide, bacterial display (enrichment ratio); higher = better substrate or ligand; peptides without Tyr show the background
metric_name: SH2 binding enrichment
Keep the answer to the number alone.

Past entries and their recorded results:
sequence_content	system	endpoint_result
PGIRMYRVQYN [LRFN1_Y454_Q455R]	c-Src SH2	0.507
NGLVACKDGKL [PMM2_Y76_Y76C]	c-Src SH2	0.541

Task: Record request: SH2 binding enrichment value, item DIDKIYIRTGI [PIK3CA_Y355_V356I]
Output: 0.623

Task: Return reported SH2 binding enrichment; argument: PPSLSYLSFEG [EXOSC3_Y143_A139P]
Output: 0.504

Task: Would you mind telling me what SH2 binding enrichment value was observed for GLSAPYVKIHL [SYT2_Y309_D307A] ?
Output: 1.07

Task: Could you tell me which SH2 binding enrichment is on file for GGYNNYGYGND [HNRNPH3_Y159] ?
Output: 0.934

Task: What value of SH2 binding enrichment has been reported for the following sequence? KFWREYILSLE [GPC3_Y299_YF]
Output: 0.932

Task: Recorded SH2 binding enrichment of SPYMLYQYLKQ [RPAP3_Y567_D564Y] , please.
Output: 1.11

Task: Can you share its SH2 binding enrichment? I mean this sequence: KGELCYMHSRV [ABCD1_Y281_R280C]
Output: 0.632

Task: Entry FARNSYVAGQY [G6PD_Y107] : reported SH2 binding enrichment = ?
Output: 0.495

Task: // query SH2 binding enrichment value for entry FDSPFYQDSLP [TSC1_Y508_R509Q]
Output: 0.586

Task: Could you share which SH2 binding enrichment value was measured for GLDGSYLPRDS [SH2D1A_Y29_L31P] ?
Output: 0.557

Task: For the sequence NLMPAYHKCIQ [CYP21A2_Y190_Y191H] , what SH2 binding enrichment is on record?
Output: 0.65

Task: Record request: SH2 binding enrichment value, item TPTFPYLLPKS [PLD2_Y580_YF]
Output: 0.587

Task: GET /values?readout=SH2 binding enrichment&item= KDHPDYKYQAR [SOX10_Y171_P175A]
Output: 0.476

---

Tested on: AncSZ
Test: phosphorylation enrichment, bacterial display (enrichment ratio); higher = better substrate or ligand; peptides without Tyr show the background
metric_name: phosphorylation enrichment
Keep the answer to the number alone.

sequence_content	endpoint_result
PEADKYRLPYA [FGG_Y300_T303P]	0.763

Task: Please tell me: phosphorylation enrichment of ALLTKYSRSSM [DSCC1_Y374_H376R] , system AncSZ?
Output: 0.617

Task: Tell me reported phosphorylation enrichment for KGELCYMHSRV [ABCD1_Y281_R280C] , tested with AncSZ.
Output: 0.813

---

Target: Hck (UniProt P08631)
Sequence (P08631 whole entry, looked up): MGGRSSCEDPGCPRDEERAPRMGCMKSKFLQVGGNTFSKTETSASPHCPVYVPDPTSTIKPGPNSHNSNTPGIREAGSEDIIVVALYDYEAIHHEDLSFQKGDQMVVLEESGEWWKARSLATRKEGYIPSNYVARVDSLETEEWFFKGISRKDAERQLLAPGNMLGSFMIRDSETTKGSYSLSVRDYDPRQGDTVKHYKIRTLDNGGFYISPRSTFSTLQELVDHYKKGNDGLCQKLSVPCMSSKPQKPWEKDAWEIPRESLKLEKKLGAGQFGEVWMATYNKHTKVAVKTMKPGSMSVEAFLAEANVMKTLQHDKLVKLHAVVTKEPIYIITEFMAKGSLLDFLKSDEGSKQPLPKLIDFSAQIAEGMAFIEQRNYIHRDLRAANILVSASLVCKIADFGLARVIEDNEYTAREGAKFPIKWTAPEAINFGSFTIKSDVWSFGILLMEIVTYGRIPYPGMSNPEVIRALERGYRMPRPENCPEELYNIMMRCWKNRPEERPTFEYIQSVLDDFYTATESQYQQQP
Assay: phosphorylation enrichment, bacterial display (enrichment ratio); higher = better substrate or ligand; peptides without Tyr show the background
Note to self: values exactly at 0.8 are Satisfied. So phosphorylation enrichment at or above 0.8 is Satisfied, below is Not satisfied.

sequence_content	class
DVYVSYDYGKS [SORL1_Y139]	Satisfied

Task: Kindly determine if phosphorylation enrichment recorded for AKAFIYASHIV [ZNF573_Y229_G224A] is above or exactly 0.8.
Output: Satisfied

Task: Determine whether measured phosphorylation enrichment meets or exceeds 0.8 for NGLVAYKDGKL [PMM2_Y76]
Output: Not satisfied

Task: Does phosphorylation enrichment meet or surpass 0.8 for QLQTNYPSSDN [MAX_Y115] ?
Output: Not satisfied

Task: Check the entry FFFDLYGGEKF [PTPN11_Y66_D61Y_YF] : does phosphorylation enrichment equal or exceed 0.8?
Output: Satisfied

Task: hey, is phosphorylation enrichment for this one >= 0.8? TTPYNYSYIFK [RAB14_Y8_A4T]
Output: Satisfied

Task: Decide: is the reported value of phosphorylation enrichment for FLTQHYDAEPQ [ANG_Y38_K41E] equal to or greater than 0.8?
Output: Not satisfied
